tested on: RXF 393; test: NCI tumour cell line growth inhibition, 48 h
Activity calls are given as the source filed them. Cut-off read from the data, not from the text of the source: active = GI50 up to about 1.1 µM and inactive = higher.
Could you please report measured GI50 for the items listed next?

[in] Hello, I am looking for reported GI50 with RXF 393 for CCCSCC(P(=O)(O)O)P(=O)(O)O.NC1CCCCC1 . Could you help?
[out] > 100 µM (inactive)

[in] Entry to check: COCCOCCOC1=C(Cl)C(=O)c2c(O)ccc(O)c2C1=O
[out] 1.44 µM (inactive)

[in] Entry to check: CC1=CCC2(C#N)CCC1C2O (stereo not given)
[out] > 100 µM (inactive)

[in] Entry to check: COc1cc(C)c2c(c1C=O)Oc1c(c(C)c(O)c3c1C(O)OC3=O)OC2=O (stereo not given)
[out] 32.5 µM (inactive)

[in] Entry to check: CC(C)C(Br)C(=O)NCC(=O)O (stereo not given)
[out] > 100 µM (inactive)
